assay: in vitro; conditions: DNG CC50
API: label(entry) gives met if the entry's CC50 is strictly smaller than 40 µM; on equality or larger values it gives not met.

STRUCTURE_SMILES	ASSIGNED_CATEGORY
CCOc1ccc2nc(C)cc(Nc3cc(Cl)ccc3OC)c2c1	met
Cc1ccc2nc3c(c(Nc4ccc(N5CCOCC5)cc4)c2c1)CCC3	not met
CCOC(=O)c1ccc2nc(C)cc(Nc3ccc(C)cc3C)c2c1	not met
CCOC(=O)c1cnc2ccc(OCC)cc2c1Nc1ccc(I)cc1	not met
CCOc1ccc2nc(C)cc(Nc3ccc(C)c(Cl)c3)c2c1	met
CCOC(=O)c1cnc2c(Cl)c(Cl)ccc2c1NCc1ccco1	met
Cc1cc(NNC(=O)OCc2ccccc2)c2ccccc2n1	not met
COc1ccc(Nc2cc(C)nc3c2ccc2ccccc23)cc1	not met
C=CCNc1c2c(nc3ccccc13)CCC2	not met
CCOC(=O)c1cnc2c(Cl)cc(Cl)cc2c1NCc1ccco1	not met
